experiment: qHTS for Inhibitors of Inflammasome Signaling: IL-1-beta AlphaLISA Primary Screen; conditions: THP-1 LPS/ATP IL-1B secretion, 16 h; at 57.5 µM, hits give low values; note: % is set by controls: 0 for no effect and ±100 for the full control effect
In all, about 360,000 compounds went through this assay and about 17,000 (4.7%) were called active. Inconclusive results (about 5%) are left out. What follows is part of a selection rich in actives, with near analogues and random picks from the rest.
Friendly reminder: activity change below 10% is MET, at or above is NOT MET.

Problem: Here's an entry: CCN1C[C@@H]2[C@@H]3C(=O)N(Cc4ccccc4)C(=O)[C@@H]3[C@](C)(C1=O)N2C(=O)c1ccc(C(C)(C)C)cc1 . Is its activity change below 10%?
Solution: MET

Problem: hey, is activity change for c1cc(-c2ccc3[nH]ccc3c2)n2ccnc2c1 lower than 10% or not?
Solution: NOT MET

Problem: Determine if O=C(Nc1cccc2ccccc12)NC1CC1 shows activity change strictly lower than 10%.
Solution: MET

Problem: Would you kindly verify if activity change of C/C(=N\N(C)C)c1ccc(OCCOc2ccc([N+](=O)[O-])cc2)cc1 is strictly less than 10%?
Solution: MET

Problem: Hi there! Is activity change for C/C(=N/NC(=O)CC(=O)N/N=C(\C)c1ccc([N+](=O)[O-])cc1)c1ccc([N+](=O)[O-])cc1 below 10%, do you know?
Solution: NOT MET

====

Assay: qHTS for Inhibitors of Inflammasome Signaling: IL-1-beta AlphaLISA Primary Screen
Conditions: THP-1 LPS/ATP IL-1B secretion, 16 h; at 57.5 µM
Description: Inflammasomes are a set of intracellular multi-protein complexes that enable autocatalytic activation of inflammatory caspases and drive the innate immune response to counter harmful agents. […] A qHTS assay, based on AlphaLISA technology, was developed to screen the Molecular Libraries Small Molecule Repository (MLSMR) to look for novel inflammasome inhibitors. The assay detects IL-1B using AlphaLISA anti-IL-1B acceptor and donor beads. […]
Hit rate of the full screen: of about 360,000 compounds, about 17,000 (4.7%) were called active. Roughly 5% stayed inconclusive and do not appear here. Rule as the data show it: active = activity change below about -50%; inconclusive = mostly about -30% to -49%; inactive = weaker than that. What follows is part of a selection rich in actives, with near analogues and random picks from the rest.
Write down one outcome, taken from active, inactive

Problem: Assay result, entry CCCCOC(=O)NCN1C(=O)C2C3C=CC(C3)C2C1=O (stereo not given) — outcome?
Solution: inactive

Problem: Can you look up the reported call for C[C@H](CO)N1C[C@H](C)[C@@H](CN(C)C(=O)C2CCCCC2)OCc2cnnn2CCCC1=O for me?
Solution: inactive

Problem: Answer briefly: the call reported for Cc1cc(C(C)(C)C)cc(S(=O)(=O)Nc2ccc(C(=O)O)cc2)c1C in this assay.
Solution: inactive

Problem: // outcome(item) with item = O=C1c2cccc3c([N+](=O)[O-])ccc(c23)C(=O)N1CC1CCCO1 (stereo not given)
Solution: active

Problem: Field: outcome | Entry: CCOc1cccc(=O)c2c(C)n(CC3CCCO3)c(C)c12 (stereo not given)
Solution: inactive

====

assay: qHTS for Inhibitors of Inflammasome Signaling: IL-1-beta AlphaLISA Primary Screen; conditions: THP-1 LPS/ATP IL-1B secretion, 16 h; at 57.5 µM, hits give low values
Hit rate of the full screen: of about 360,000 compounds, about 17,000 (4.7%) were called active. Another 5% or so got no clear call; they are omitted. For the sample, actives were picked, then their nearest neighbours and some compounds at random.
Can you tell me activity change for the items I'm about to list?

Problem: Identify measured activity change associated with c1ccc2c(NC3C4CC5CC(C4)CC3C5)nc(N3CCOCC3)nc2c1 (stereo unspecified)
Solution: -79.7% (active)

Problem: Dear colleague, please send me the reported activity change for O=C(c1c(Cl)cccc1Cl)N1CCN(c2cccc3[nH]ccc23)CC1 when you can.
Solution: -73.5% (active)

Problem: Please give measured activity change of the following entry: O=C(c1ccc2ccccc2n1)N1CCN(c2ccccc2Cl)CC1
Solution: -2.41% (inactive)

Problem: Quote activity change reported for Cc1ccc(C)c(NC(=S)NNC(=S)Nc2ccc(C(C)C)cc2)c1 please.
Solution: -52.5% (active)

Problem: Note down activity change recorded for Cc1ccc(C)c(NC(=S)NNC(=O)c2csc(C)c2)c1
Solution: 12.4% (inactive)

Problem: Hello, please tell me recorded activity change for this one: Cc1nc(-c2ccccc2)sc1C(=O)/C=C/c1ccccc1
Solution: -84.3% (active)

Problem: Identify measured activity change associated with CC(C)c1ccc(NC(=S)NNc2ccc(Cl)c(C(=O)O)c2)cc1
Solution: 20.7% (inactive)

Problem: Respond only with activity change recorded for COc1ccc(C(=O)/C=C/c2ccc(OC3CSC3)cc2)cc1
Solution: -99.6% (active)

Problem: Identify measured activity change associated with COc1ccc(C(=O)CCC(=O)Nc2cccnc2)c(OC)c1
Solution: -9.85% (inactive)

Problem: Please list activity change recorded for the compound O=C(COC(=O)/C=C/c1ccc2c(c1)OCO2)NC1CCS(=O)(=O)C1 (stereo unspecified)
Solution: -29.2% (inactive)

Problem: Provide activity change value for the following compound: Fc1cnc(N2CCOCC2)nc1NCc1ccccc1
Solution: 38.4% (inactive)
